# reported growth; entries follow
test system: K-562 leukemia; experiment: NCI-60 one-dose screen, 48 h (100 = growth as untreated, 0 = no growth, -100 = all killed); details: 10 µM unless noted
The panel holds about 83,000 compounds, 20% with a hit somewhere; the sample as a whole holds those more often.
All answers are understood in %, so give the number only.

These recorded examples may help you get a feel for the data.
{"Structure As Smiles": "NC1CC2(CCN(c3cnc(C(=O)Nc4cc(F)cc5cccnc45)cn3)CC2)C1", "Measurement Name": "growth", "Value Measured": -13.3}
{"Structure As Smiles": "C#CCN(C)CCCOc1ccc(NCc2ccc(/C=C/C(=O)NO)cc2)cc1Cl", "Measurement Name": "growth", "Value Measured": 15.3}
{"Structure As Smiles": "O=C(CCCCCCNC(=O)C(O)(O)C(F)(F)F)Nc1ncc(-c2ccc(Br)cc2)s1", "Measurement Name": "growth", "Value Measured": 11.8}
{"Structure As Smiles": "COc1ccc(/C=N/N=C(/c2ccccc2)c2ccc3nc(-c4ccc(Cl)cc4)[nH]c3c2)cc1", "Measurement Name": "growth", "Value Measured": 47.9}
{"Structure As Smiles": "CSc1ccc(/C(=N/N=C(N)N)c2ccc(Cl)cc2)cc1", "Measurement Name": "growth", "Value Measured": 1.76}
{"Structure As Smiles": "CCCCCCN1C=C/C(=C\\C(=O)n2ccc3ccccc32)c2ccccc21", "Measurement Name": "growth", "Value Measured": 31.8}
{"Structure As Smiles": "CCCCCCOC(=O)c1cc(-c2ccc(F)cc2)nc2ccccc12", "Measurement Name": "growth", "Value Measured": 101}
{"Structure As Smiles": "CCN(CC)CCOc1ccc(C(=C(C)c2ccc(OC)cc2)c2ccc(OCCN(CC)CC)cc2)cc1", "Measurement Name": "growth", "Value Measured": -12.4}
{"Structure As Smiles": "COc1ccc(/C(=N\\NC(N)=S)c2ccc(Cl)cc2)cc1OC", "Measurement Name": "growth", "Value Measured": 19}

// next entry
Short answer for Clc1cccc(/C=N/Nc2nc(N/N=C/c3cccc(Cl)c3)nc(N3CCCCC3)n2)c1 : growth was 83

* * *

system: HCT-15 colon; test: NCI-60 one-dose screen, 48 h (100 = growth as untreated, 0 = no growth, -100 = all killed); details: 10 µM unless noted
About 83,000 compounds went through this panel and 20% of them were active in at least one assay; those are over-represented in the sample as a whole.
Measurement Name: growth (%)
All answers are understood in %, so give the number only.

Some entries whose results are on file:
{"Compound": "CCCC/C(=C\\c1ccc(O)c(O)c1)C(=O)NC(Cc1ccccc1)C(=O)C(=O)NCCc1ccc(OC)cc1 (centres undefined)", "growth / %": 93.4}
{"Compound": "O=C(CCCCCCNC(=O)C(O)(O)C(F)(F)F)Nc1nc2ccccc2s1", "growth / %": 6.75}
{"Compound": "OCC(Nc1ncnc2ccc(-c3cnc4cnccn34)cc12)c1ccccc1 (centres undefined)", "growth / %": 92.3}
{"Compound": "CC1(C)CC[C@]23CC[C@]4(C)[C@H](CC[C@@H]5[C@@]6(C)CC[C@H](N)C(C)(C)[C@@H]6CC[C@]54C)[C@H]2[C@H]1OC3", "growth / %": -52.2}
{"Compound": "Oc1[nH]c2ccc(Cl)cc2c1N=Nc1nc(N=Nc2c(O)[nH]c3ccc(Cl)cc23)nc(N2CCOCC2)n1", "growth / %": 91.6}
{"Compound": "COc1ccc(/C=N/N=C(/c2ccccc2)c2ccc3nc(-c4ccc(Cl)cc4)[nH]c3c2)cc1", "growth / %": 59.7}
{"Compound": "CC(C)(C)OC(=O)Nc1ccc(-c2cccc(Oc3ccc4nnc(Cl)n4n3)c2)cc1", "growth / %": 65}
{"Compound": "CCc1nnc(NC(=O)c2cc(-c3ccc(Cl)cc3Cl)oc2C)s1", "growth / %": 70.5}

Input C#CCOc1cccc(/C(N)=N/C(N)=N/c2nc3ccccc3s2)c1 . Output growth: 57.4

* * *

Tested on: DU-145 prostate
Assay: NCI-60 one-dose screen, 48 h (100 = growth as untreated, 0 = no growth, -100 = all killed)
Conditions: 10 µM unless noted
Description: Cells are grown in 96 well plates and exposed to the test compound for 48 hours. Compounds are tested at a single concentration, which is 10^-5 M for most compounds. The reported endpoint is percent growth (GI% or GIPRCNT), where numbers from 0 - 100% represent growth inhibition, and numbers from -100% - 0 represent cell death. For example, a value of 40 represents 60% growth inhibition. A value of 0 means no net growth occurred over the course of the experiment. […]
This is part of a sample that, as a whole, favours compounds with a hit. Of some 83,000 tested, about 20% had one in any assay.
Measurement Name: growth (%)
Quick reminder: number only, in %, skip the unit.

{"Compound": "CC(C)(C)c1cc(NC(=O)Nc2ccc(-c3cn4c5c(sc4n3)CCc3cn(CCCN4CCCCC4)cc3-5)cc2)no1", "System Under Test": "DU-145 prostate", "Reading Unit": "%", "growth": -96.4}
{"Compound": "O=C1[C@H]2Cc3c([nH]c4ccccc34)[C@H](c3ccc(Cl)cc3)N2C(=O)CN1C1CCN(CC2CCCCC2)CC1", "System Under Test": "DU-145 prostate", "Reading Unit": "%", "growth": 74.6}
{"Compound": "CC(=O)Nc1cc(N2CCOCC2)c2nc(NC(=O)c3[nH]c(C)c(Cl)c3Cl)sc2c1", "System Under Test": "DU-145 prostate", "Reading Unit": "%", "growth": 58.1}

# growth of CN1CCN(Cc2ccc(NC(=O)c3cncc(C#Cc4cnc5ccc(NCCO)nn45)c3)cc2C(F)(F)F)CC1 = -2.12

# compound O=C(O)c1ccc(-n2c(=O)n(-c3cccc(C(F)(F)F)c3)c(=O)c3cc(-c4ccc(F)cc4F)ccc32)cc1 ; its growth = 25.9

Memo: O=c1c2cc(-c3ccc(F)cc3F)ccc2n(Nc2ccccc2)c(=O)n1-c1cccc(C(F)(F)F)c1 , reported growth: 26.6

For reference, reported growth for N#Cc1c(-c2cccs2)cc(-c2cnccn2)nc1SCC(=O)N/N=C/c1cccs1 stands at 37.3

Query CCCNNC(=O)c1ccc(-c2ccc(NC(=O)CCCCCCC(=O)N[C@H](C(=O)N3C[C@H](O)C[C@H]3C(=O)N[C@@H](C)c3ccc(-c4scnc4C)cc3)C(C)(C)C)cc2)cc1 yields growth of 32.4

compound CCOP(=O)(OCC)OC[C@]12CCC(C)(C)CC1C1=CC[C@@H]3[C@@]4(C)CCCNC(C)(C)[C@@H]4CC[C@@]3(C)[C@]1(C)CC2 (some centres not stated) , growth observed: 82.6

growth in this record for NC1CC2(CCN(c3cnc(C(=O)Nc4cc(F)cc5cccnc45)cn3)CC2)C1 : 81.3

Item: CN1CCN(c2ccc(Nc3nc(NCCCNS(=O)(=O)c4ccccc4)c4sccc4n3)cc2)CC1 | growth: 56.4

The value of growth measured for the compound N#Cc1c(-c2ccc(Br)cc2)cc(-c2c[nH]c3ccccc23)nc1N turned out to be 70

Entry N#Cc1cccc(-c2cc(-c3ccc4c(c3)OCCO4)[nH]n2)c1 ; growth = 34.7

// growth value for O=C1/C(=C/c2cc(F)cc(F)c2)Cc2cc3c(cc21)OCO3 : 54.4

Form field growth, entry CNC(=O)c1cc(N2CCc3cc(NC(=O)Nc4ccc(N5CCOCC5)c(C(F)(F)F)c4)ccc32)ccn1 : 27.2

Briefly, growth measured for COc1ccc([C@H]2C(=O)N(c3cc(OC)c(OC)c(OC)c3)[C@@H]2c2ccc(OC)c(O)c2)cc1 : 16.7

Value of measured growth for the entry NNc1nnc2nc(Nc3ccccc3)nc(Nc3ccc(S(N)(=O)=O)cc3)n12 : 112

* * *

test system: NCI/ADR-RES ovarian; experiment: NCI-60 one-dose screen, 48 h (100 = growth as untreated, 0 = no growth, -100 = all killed); details: 10 µM unless noted
About 83,000 compounds went through this panel and 20% of them were active in at least one assay; those are over-represented in the sample as a whole. Activity calls are given as the source filed them. How the source made its calls: active means growth percent below 10; inactive means the rest.
Measurement Name: growth

These solved cases illustrate the format of a correct answer.
{"Compound": "Cc1ccc(S(=O)(=O)c2nc(-c3ccc(F)cc3)oc2S(C)(=O)=O)cc1", "Measurement Name": "growth", "Value Measured": "92% (inactive)"}
{"Compound": "C=C(C)[C@@H]1CC[C@]2(C(=O)O)CC[C@]3(C)[C@H](CC[C@@H]4[C@@]5(C)C/C(=C/c6ccccn6)C(=O)C(C)(C)[C@@H]5CC[C@]43C)[C@@H]12", "Measurement Name": "growth", "Value Measured": "37.4% (inactive)"}
{"Compound": "O=C1Nc2cc(Cl)ccc2/C1=C\\c1ccc(OCc2ccccc2)cc1", "Measurement Name": "growth", "Value Measured": "104% (inactive)"}
{"Compound": "C#CCN(C)CCCOc1ccc(NC(=O)CCCCCCC(=O)NO)cc1Cl", "Measurement Name": "growth", "Value Measured": "65.4% (inactive)"}
{"Compound": "CCCCN1C(=O)/C(=c2\\sc3n(c2=O)C2C(NN=3)N(CC)C(=O)N2CC)c2cccc(C)c21 (configuration not stated)", "Measurement Name": "growth", "Value Measured": "24.6% (inactive)"}
{"Compound": "Cc1ccsc1[C@H]1c2[nH]c3ccccc3c2C[C@H]2C(=O)N(CCCCCCC(=O)NO)CC(=O)N12", "Measurement Name": "growth", "Value Measured": "95.9% (inactive)"}
{"Compound": "O=C1C(SCc2ccccc2)=C(Cl)CN1c1ccccc1", "Measurement Name": "growth", "Value Measured": "102% (inactive)"}
{"Compound": "COc1ccc(CC(C)=C(c2ccc(OCCN3CCCC3)cc2)c2ccc(OCCN3CCCC3)cc2)cc1", "Measurement Name": "growth", "Value Measured": "-80.5% (active)"}

Per the record, O=C(CCCCCCN1CC(=O)N2[C@@H](c3cccs3)c3[nH]c4ccccc4c3C[C@H]2C1=O)NO has growth of 90.4% (inactive)

Measured growth of NS(=O)(=O)c1cccc(Nc2nc(SCC(=O)c3ccc(Cl)cc3)nc3c2CCC3)c1 : 96.7% (inactive)

The recorded growth for entry CCC(=C(c1ccc(OCCN(C)C)cc1)c1ccc(OCCN(C)C)cc1)c1ccc(Cl)cc1 equals -25.7% (active)

Taken from PubChem BioAssay (NCI).
